Here the recorded self-cleavage is given for each entry.
B1: Twister Ribozyme (parent)
chain: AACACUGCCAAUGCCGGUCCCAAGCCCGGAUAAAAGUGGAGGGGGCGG

# Variants of: B1
# METHOD: self-cleavage, relative activity (ratio to wild type); higher = more cleavage; co-transcriptional
Lab note: jot down the number only; don't add units.

// solved cases for self-cleavage follow
1. U12A A30G : 1.01
2. A30U G47U : 0.954
3. C20A C21U : 0.0931

Query: Indicate the recorded self-cleavage value for this variant: A23G C26A
Result: 0.0747

Query: Give the reported self-cleavage for this variant. A4U A30U
Result: 0.11
